Values compiled from PubChem BioAssay (NCATS).

method description: Quantitative High-Throughput drug screen in 47 multiple myeloma cell lines against the NCATS MIPE library collection: OPM1_PLB cell viability assay (AID 1918989); further: nearly all actives have a fitted effect of over 40% in size
details: CellTiter-Glo, 48 h; series mostly up to 45.8 µM
Records with an inconclusive call do not appear. The source made the active and inactive calls. The call rests on the fitted dose curve; in most records, active means well fitted cell-killing curve with a large enough effect; inconclusive means small, poorly fitted or top-dose-only effect, or effect the other way; inactive means no such curve, though single readings can be large or run the other way.
Outcome field: choose from true (1) = active, false (0) = inactive

Returns: the outcome recorded for O=c1cc(-c2ccccc2)oc2cc(O)c(O)c(O)c12 in this assay.
true (1)

Returns: the outcome recorded for O=c1ccn([C@@H]2O[C@H](CO)[C@H](O)[C@H]2O)c(=O)[nH]1 in this assay.
false (0)

Returns: the outcome recorded for CCNc1cc(NC2CCC(O)CC2)nc(Nc2ccc3c(ccn3Cc3ccccc3)c2)n1 (centres undefined) in this assay.
true (1)

Returns: the outcome recorded for NS(=O)(=O)c1cccc2c1C(=O)c1cccc(O)c1C2=O in this assay.
true (1)

Returns: the outcome recorded for COc1ccc(-c2coc3cc(O)cc(O)c3c2=O)cc1 in this assay.
false (0)

Returns: the outcome recorded for O=C(O)c1cc(O)c2c(c1)C(=O)c1cccc(O)c1C2=O in this assay.
false (0)

Returns: the outcome recorded for COc1ccc(-c2cc(=O)c3c(O)cc(O)cc3o2)cc1O in this assay.
true (1)

Returns: the outcome recorded for CNC(=O)c1ccccc1Sc1ccc2c(C=Cc3ccccn3)n[nH]c2c1 in this assay.
true (1)

Returns: the outcome recorded for Nc1ncnc2ccccc12 in this assay.
false (0)

Returns: the outcome recorded for CCC(=O)NC[C@H](Cc1ccc(OCCc2nc(-c3ccccc3)oc2C)cc1)NC(C)=CC(=O)c1ccc(C(F)(F)F)cc1 in this assay.
false (0)

Returns: the outcome recorded for N#C[C@H]1C[C@H]2C[C@@H]2N1C(=O)[C@@H](N)C12CC3CC(CC(O)(C3)C1)C2 in this assay.
false (0)

Returns: the outcome recorded for O=c1cc(N2CCOCC2)oc2c(-c3cccc4c3sc3ccccc34)cccc12 in this assay.
true (1)

Returns: the outcome recorded for CO[C@H]1C(=O)[C@]2(C)[C@@H](OC)C[C@H]3OC[C@@]3(OC(C)=O)[C@H]2[C@H](OC(=O)c2ccccc2)[C@]2(O)C[C@H](OC(=O)[C@H](O)[C@@H](NC(=O)OC(C)(C)C)c3ccccc3)C(C)=C1C2(C)C in this assay.
false (0)

Returns: the outcome recorded for C[C@H](NC(=O)C(=O)Nc1ccccc1C(C)(C)C)C(=O)N[C@@H](CC(=O)O)C(=O)COc1c(F)c(F)cc(F)c1F in this assay.
false (0)

Returns: the outcome recorded for CCN(CC)CCOc1ccc(C(=C(Cl)c2ccccc2)c2ccccc2)cc1 in this assay.
false (0)

Returns: the outcome recorded for CC(C)(C)C(=O)Oc1ccc2c(c1)nc(NC(=O)c1cccc([N+](=O)[O-])c1)n2CCCO in this assay.
false (0)

Returns: the outcome recorded for Oc1ccc(C2CCN(c3ccnc4ccccc34)CC2)cc1O in this assay.
true (1)

Returns: the outcome recorded for CC(C)C(=O)Nc1ncc(-c2cc(C(F)F)nn2-c2c(Cl)cccc2Cl)s1 in this assay.
true (1)

Returns: the outcome recorded for Cc1ccc([C@@H]2O[C@H](CO)[C@@H](O)[C@H](O)[C@@H]2O)cc1Cc1ccc(-c2ccc(F)cc2)s1 in this assay.
true (1)

----------
method description: Quantitative High-Throughput drug screen in 47 multiple myeloma cell lines against the NCATS MIPE library collection: XG1_PLB cell viability assay (AID 1919866); further: nearly all actives have a fitted effect of over 35% in size
details: CellTiter-Glo ATP, 48 h; series mostly up to 45.8 µM
From the text: PI: Beverly A. Mock Ph.D. Laboratory of Cancer Biology and Genetics, Center for Cancer Research, National Cancer Institute, National Institute of Health, Bethesda, Maryland […] 5; Detector; 425V; Luminescence; Viewlux PerkinElmer. […] 1. […] Briefly, the corresponding myeloma cell lines were screened in 1,536-well plates with 500 cells, 5-uL per well for inhibition of cell viability (assessed by measuring ATP levels with CellTiterGlo). […]
Results filed as inconclusive are left out. Activity calls are given as the source filed them. Calls follow the shape of the dose curve; as a rule, active = well fitted cell-killing curve with a large enough effect; inconclusive = small, poorly fitted or top-dose-only effect, or effect the other way; inactive = no such curve, though single readings can be large or run the other way.
Outcome field: choose from 1 (active), -1 (inactive)

Returns: the outcome recorded for O=C(CCc1ccc(O)cc1)c1c(O)cc(O)cc1O[C@@H]1O[C@H](CO)[C@H](O)[C@H](O)[C@H]1O in this assay.
-1

Returns: the outcome recorded for COc1cc(O)c2c(c1)C(=O)c1cc(C)cc(O)c1C2=O in this assay.
-1

Returns: the outcome recorded for CC(=O)N(C)C1(c2ccccc2)CCN(CCC[C@]2(c3ccc(Cl)c(Cl)c3)CCCN(C(=O)c3ccccc3)C2)CC1 in this assay.
1

Returns: the outcome recorded for CC(C)=CC[C@@H](O)C1=CC(=O)c2c(O)ccc(O)c2C1=O in this assay.
1

Returns: the outcome recorded for CCNc1cc(NC2CCC(O)CC2)nc(Nc2ccc3c(ccn3Cc3ccccc3)c2)n1 (stereo not given) in this assay.
1
